Experiment: Dynamic light scattering (DLS) of drug‐conjugates in water
Assay type: physicochemical
Conditions: DLS in water, at the concentration given per compound (Figures S2–S5)
Method: To study, whether self‐assembly into micelles might have an effect on the solubility limit of the prodrugs, we perform dynamic light scattering (DLS) of the drug‐conjugates in water. […] Micelles below 6 nm (Cer‐OEG8 , Cri‐OEG3 , Cri‐OEG8 , Pal‐OEG3 , Rib‐OEG2 , and Rib‐OEG3 ) are potentially affected by renal clearance. Dynamic Light Scattering (DLS): Possible self‐assemblies are investigated with DLS Nano‐Zetasizer (Malvern Instruments) at 25 °C with a scattering angle of 173° at λ=633 nm.
property name: hydrodynamic diameter (nm)

COCCOCCOCCOCCOCCOCCOCCOCCOP(=O)(OCCOCCOCCOCCOCCOCCOCCOCCOC)N1CCC(n2cc(-c3cnc(N)c(O[C@H](C)c4c(Cl)ccc(F)c4Cl)c3)cn2)CC1
3.3
COCCOCCOCCOCCOP(=O)(OCCOCCOCCOCCOC)N1CCN(c2ccc(Nc3ncc4cc(C(=O)N(C)C)n(C5CCCC5)c4n3)nc2)CC1
92
COCCOCCOCCOCCOCCOCCOCCOCCOP(=O)(OCCOCCOCCOCCOCCOCCOCCOCCOC)N1CCN(c2ccc(Nc3ncc4c(C)c(C(C)=O)c(=O)n(C5CCCC5)c4n3)nc2)CC1
596
COCCOCCOP(=O)(OCCOCCOC)N1CCN(c2ccc(Nc3ncc4cc(C(=O)N(C)C)n(C5CCCC5)c4n3)nc2)CC1
2.5
COCCOCCOCCOCCOCCOCCOCCOCCOP(=O)(OCCOCCOCCOCCOCCOCCOCCOCCOC)N1CCC(c2cc(OC(C)C)c(Nc3ncc(Cl)c(Nc4ccccc4S(=O)(=O)C(C)C)n3)cc2C)CC1
4.9
COCCOCCOCCOP(=O)(OCCOCCOCCOC)N1CCC(c2cc(OC(C)C)c(Nc3ncc(Cl)c(Nc4ccccc4S(=O)(=O)C(C)C)n3)cc2C)CC1
279
COCCOCCOCCOP(=O)(OCCOCCOCCOC)N1CCN(c2ccc(Nc3ncc4cc(C(=O)N(C)C)n(C5CCCC5)c4n3)nc2)CC1
1.8
COCCOCCOCCOP(=O)(OCCOCCOCCOC)N1CCN(c2ccc(Nc3ncc4c(C)c(C(C)=O)c(=O)n(C5CCCC5)c4n3)nc2)CC1
5
COCCOCCOCCOP(=O)(OCCOCCOCCOC)N1CCC(n2cc(-c3cnc(N)c(O[C@H](C)c4c(Cl)ccc(F)c4Cl)c3)cn2)CC1
3.7
COCCOCCOP(=O)(OCCOCCOC)N1CCN(c2ccc(Nc3ncc4c(C)c(C(C)=O)c(=O)n(C5CCCC5)c4n3)nc2)CC1
264
COCCOCCOP(=O)(OCCOCCOC)N1CCC(c2cc(OC(C)C)c(Nc3ncc(Cl)c(Nc4ccccc4S(=O)(=O)C(C)C)n3)cc2C)CC1
565
COCCOCCOP(=O)(OCCOCCOC)N1CCC(n2cc(-c3cnc(N)c(O[C@H](C)c4c(Cl)ccc(F)c4Cl)c3)cn2)CC1
151
COCCOCCOCCOCCOCCOCCOCCOCCOP(=O)(OCCOCCOCCOCCOCCOCCOCCOCCOC)N1CCN(c2ccc(Nc3ncc4cc(C(=O)N(C)C)n(C5CCCC5)c4n3)nc2)CC1
64
